- TESTED_SYSTEM: T1, PSMA Fab
- T1 construct: also called Anti-PSMA Fab; 006 PSMA Fab
- ASSAY_METHOD_TEXT: phage binding ELISA; biotinylated PSMA Fab on neutravidin plate, clonal phage supernatant, anti-M13 HRP detection; column read as anti-PSMA Fab without PSMA antigen
Entries and their phage binding ELISA signal values follow.
// no unit, no text: just the number

See these solved cases before continuing.
> print(dat)
                        binder  numeric.value
1  LVKWCVPDWMCQET [Phage-2598]           1.04
2  VLNWCTPPWMCLGI [Phage-2589]           1.06
3  SVTWCIPPWMCELS [Phage-2600]           1.04
4  VHKWCTPAWMCEVH [Phage-2597]           1.04

[in] Could you please provide reported phage binding ELISA signal for HPQLCIPSWMCNVW [Phage-2594] ? Thanks!
[out] 1.05
